assay: 14-day oral gavage toxicokinetic study in rats; assay type: in vivo; details: female, rat, plasma, po, 2 mg/kg, Mean Compound 1 Plasma Concentration, rats, oral 2 mg/kg, Day 1, 4 h, Female
measurementKind: concentration at 4 h (ng/mL)
Give bare numbers, in ng/mL.

Fill in the blank: the reported concentration at 4 h of CN1CCN(c2ccc(Nc3ncc4cc5n(c4n3)C3(CCCCC3)CNC5=O)nc2)CC1 is ____. 175

----------
Test: Single escalating dose IV infusion pharmacokinetics in healthy volunteers (noncompartmental)
Type: in vivo, human
Conditions: both sexes, human, plasma, iv, 6 mg/m2, Cohort 1, 6 mg/m^2 IV; mean; read-out: AUCinf averaged
Procedure: Forty-five subjects have enrolled in the study. Analysis of plasma concentration versus time data for calculation of standard pharmacokinetic (PK) parameters following intravenous infusion administration was conducted using Phoenix WinNonlin version 6.3 using a nominal infusion duration and scheduled blood sampling times. Random subject numbers were assigned by the bioanalytical laboratory to retain the blind. […]
measurementKind: AUC(0-inf) (ng·h/mL)
Numbers only, in ng·h/mL.

// AUC(0-inf) lookup, key: CN1CCN(c2ccc(Nc3ncc4cc5n(c4n3)C3(CCCCC3)CNC5=O)nc2)CC1 67.7

----------
experiment: 14-day oral gavage toxicokinetic study in rats; type: in vivo; details: both sexes, rat, plasma, po, 30 mg/kg, oral 30 mg/kg, Study Day 14, Overall
measurementKind: Cmax (ng/mL)
One number for each entry, in ng/mL.

For the compound CN1CCN(c2ccc(Nc3ncc4cc5n(c4n3)C3(CCCCC3)CNC5=O)nc2)CC1 , what Cmax is on record? 2180

----------
assay: Single escalating dose IV infusion pharmacokinetics in healthy volunteers (noncompartmental); type: in vivo, human; conditions: both sexes, human, plasma, iv, 6 mg/m^2, Compound 1 Concentration, Cohort 1, 6 mg/m^2 IV; Time 8.50 h; r7-9=Subjects 1-3,r11=Mean,r13=Min,r14=Median,r15=Max,r17=Geometric Mean
measurementKind: concentration at 8.5 h (ng/mL)
One number for each entry, in ng/mL.

Fill blank: measured concentration at 8.5 h of the compound CN1CCN(c2ccc(Nc3ncc4cc5n(c4n3)C3(CCCCC3)CNC5=O)nc2)CC1 is ____. 1.39

----------
assay: 14-day oral gavage toxicokinetic study in rats; type: in vivo; details: male, rat, plasma, po, 30 mg/kg, Mean Compound 1 Plasma Concentration, rats, oral 30 mg/kg, Day 1, 4 h, Male
measurementKind: concentration at 4 h
A complete answer gives the number and then names the unit.

Form field: reported concentration at 4 h of CN1CCN(c2ccc(Nc3ncc4cc5n(c4n3)C3(CCCCC3)CNC5=O)nc2)CC1 2240 ng/mL

----------
assay: Single escalating dose IV infusion pharmacokinetics in healthy volunteers (noncompartmental); format: in vivo, human; settings: both sexes, human, plasma, iv, 24 mg/m2, Cohort 3, 24 mg/m^2 IV; mean; read-out: AUCinf averaged
measurementKind: AUC(0-inf) (ng·h/mL)
Numbers only, in ng·h/mL.

AUC(0-inf) for CN1CCN(c2ccc(Nc3ncc4cc5n(c4n3)C3(CCCCC3)CNC5=O)nc2)CC1 [Compound 1] ? 287

----------
test: Compound 1 PK dosed Days 1-5 with topotecan; assay type: in vivo, human; conditions: human, plasma, intravenous, 200 mg/m^2 with Topotecan 1.25 mg/m^2 (Cohort 2), Day 4, Median; read-out: t½ (converted)
measurementKind: half-life (min)
One number for each entry, in min.

What does the data say about its half-life? Entry: CN1CCN(c2ccc(Nc3ncc4cc5n(c4n3)C3(CCCCC3)CNC5=O)nc2)CC1 546

----------
assay: Single escalating dose IV infusion pharmacokinetics in healthy volunteers (noncompartmental); format: in vivo, human; details: both sexes, human, plasma, iv, 24 mg/m2, Cohort 3, 24 mg/m^2 IV; r6-8=Subjects 1-3,r10=Mean,r12=Min,r13=Median,r14=Max,r16=Geometric Mean; read-out: AUCinf
measurementKind: AUC(0-inf) (ng·h/mL)
One number for each entry, in ng·h/mL.

May I ask what AUC(0-inf) has been recorded for CN1CCN(c2ccc(Nc3ncc4cc5n(c4n3)C3(CCCCC3)CNC5=O)nc2)CC1 [Compound 1] ? 287

----------
test: 14-day oral gavage toxicokinetic study in rats; format: in vivo; conditions: female, rat, plasma, po, 5 mg/kg, Mean Compound 1 Plasma Concentration, rats, oral 5 mg/kg, Day 1, 8 h, Female
measurementKind: concentration at 8 h (ng/mL)
Numbers only, in ng/mL.

Consider the compound CN1CCN(c2ccc(Nc3ncc4cc5n(c4n3)C3(CCCCC3)CNC5=O)nc2)CC1 and give its measured concentration at 8 h. 360

----------
assay: Single escalating dose IV infusion pharmacokinetics in healthy volunteers (noncompartmental); format: in vivo, human; details: both sexes, human, plasma, iv, 24 mg/m^2, Cohort 3, 24 mg/m^2 IV; range over 3 subjects; read-out: concentration at 24.5 hours after the start of infusion
measurementKind: concentration at 24.5 h

What value of measured concentration at 24.5 h is listed for CN1CCN(c2ccc(Nc3ncc4cc5n(c4n3)C3(CCCCC3)CNC5=O)nc2)CC1 [Compound 1] ? 0.87 to 2.91 ng/mL

----------
test: 14-day oral gavage toxicokinetic study in rats; type: in vivo; settings: both sexes, rat, plasma, po, 5 mg/kg, oral 5 mg/kg, Study Day 1, Overall; read-out: t½ (converted)
measurementKind: half-life

Look at this compound and give its reported half-life. CN1CCN(c2ccc(Nc3ncc4cc5n(c4n3)C3(CCCCC3)CNC5=O)nc2)CC1 4.14 h

----------
assay: 3-compartment model pharmacokinetic analysis, Cohorts 5 and 6; assay type: in vivo, human; conditions: both sexes, human, plasma, intravenous, 96 mg/m2; 96 mg/m^2; 3-compartment model; mean; read-out: γ phase half-life averaged (converted)
measurementKind: half-life (h)
Answers are plain numbers, in h.

Recorded half-life for CN1CCN(c2ccc(Nc3ncc4cc5n(c4n3)C3(CCCCC3)CNC5=O)nc2)CC1 , please? 14.2

----------
experiment: Compound 1 PK dosed Days 1-3 with etoposide and carboplatin; format: in vivo, human; details: human, plasma, intravenous, 200 mg/m2, 200 mg/m^2 with Etoposide and Carboplatin, Day 3, Geo. Mean; read-out: AUCτ
measurementKind: AUC (ng·h/mL)
Answers are plain numbers, in ng·h/mL.

So what does the record say about AUC for CN1CCN(c2ccc(Nc3ncc4cc5n(c4n3)C3(CCCCC3)CNC5=O)nc2)CC1 [Compound 1] ? 2530

----------
experiment: 14-day oral gavage toxicokinetic study in rats; format: in vivo; conditions: male, rat, plasma, po, 15 mg/kg, Individual Compound 1 Plasma Concentration, rats, daily oral 15 mg/kg, Day 14, Male, 1 h
measurementKind: concentration at 1 h
Give the figure together with its unit, number first.

Requested field: concentration at 1 h. Item: CN1CCN(c2ccc(Nc3ncc4cc5n(c4n3)C3(CCCCC3)CNC5=O)nc2)CC1 1020 ng/mL

----------
test: 14-day oral gavage toxicokinetic study in rats; type: in vivo; settings: female, rat, plasma, po, 2 mg/kg, Mean Compound 1 Plasma Concentration, rats, oral 2 mg/kg, Day 1, 8 h, Female
measurementKind: concentration at 8 h (ng/mL)
One number for each entry, in ng/mL.

Report concentration at 8 h for CN1CCN(c2ccc(Nc3ncc4cc5n(c4n3)C3(CCCCC3)CNC5=O)nc2)CC1 please. 96.7

----------
experiment: 14-day oral gavage toxicokinetic study in rats; assay type: in vivo; conditions: female, rat, plasma, po, 30 mg/kg, Mean Compound 1 Plasma Concentration, rats, oral 30 mg/kg, Day 14, 24 h, Female
measurementKind: concentration at 24 h
A complete answer gives the number and then names the unit.

Could you tell me which concentration at 24 h is on file for CN1CCN(c2ccc(Nc3ncc4cc5n(c4n3)C3(CCCCC3)CNC5=O)nc2)CC1 [Compound 1] ? 322 ng/mL

----------
assay: 14-day oral gavage toxicokinetic study in rats; format: in vivo; details: female, rat, plasma, po, 5 mg/kg, Mean Compound 1 Plasma Concentration, rats, oral 5 mg/kg, Day 1, 12 h, Female
measurementKind: concentration at 12 h (ng/mL)
Answers are plain numbers, in ng/mL.

concentration at 12 h for CN1CCN(c2ccc(Nc3ncc4cc5n(c4n3)C3(CCCCC3)CNC5=O)nc2)CC1 ? 140

----------
experiment: 14-day oral gavage toxicokinetic study in rats; format: in vivo; conditions: both sexes, rat, plasma, po, 2 mg/kg, Mean Compound 1 Plasma Concentration, rats, oral 2 mg/kg, Day 1, 0.5 h, Overall
measurementKind: concentration at 0.5 h (ng/mL)
Answers are plain numbers, in ng/mL.

GET /values?readout=concentration at 0.5 h&item= CN1CCN(c2ccc(Nc3ncc4cc5n(c4n3)C3(CCCCC3)CNC5=O)nc2)CC1 83.7

----------
assay: Single escalating dose IV infusion pharmacokinetics in healthy volunteers (noncompartmental); assay type: in vivo, human; conditions: both sexes, human, plasma, iv, 96 mg/m^2, Cohort 5, 96 mg/m^2, 30-minute IV infusion; noncompartmental; subjects 1-6, Mean, Min, Median, Max, Geometric Mean; read-out: Tmax
measurementKind: Tmax
For clarity, give the value followed by its unit.

# Tmax lookup, item CN1CCN(c2ccc(Nc3ncc4cc5n(c4n3)C3(CCCCC3)CNC5=O)nc2)CC1 30 min

Data provenance: patent US20160220569A1
